Assay: Single dose pharmacokinetics (SAD), Example B14
Assay type: in vivo, human
Conditions: human, plasma, oral; single dose 640 mg; median
From the text: Accordingly, a study was designed to assess the PK of Compound 5 after a single dose and following a 6-day course of doses, at levels exceeding the dosages used in preceding Examples B12 and B13. This study was designed to assess at these higher doses aspects of the single-dose and steady-state pharmacokinetics of Compound 5. This study was a single-center, randomized, double-blind, ascending dose, placebo-controlled study in healthy participants. […]
propertyLabel: Tmax (h)
Give bare numbers, in h.

Lookup: Looking for the measured Tmax of COCCN(CCCCc1ccc2c(n1)NCCC2)CC[C@H](Nc1ncnc2ccccc12)C(=O)O , can you help?
Found: 3.5

====

test: Multiple dose pharmacokinetics (MAD), Example B14; format: in vivo; conditions: human, plasma, oral; 320 mg daily, Day 7; geometric mean; read-out: AUC0−24, ng × h/mL
propertyLabel: AUC(0-t) (ng·h/mL)
Answers are plain numbers, in ng·h/mL.

Lookup: Looking for the measured AUC(0-t) of COCCN(CCCCc1ccc2c(n1)NCCC2)CC[C@H](Nc1ncnc2ccccc12)C(=O)O , can you help?
Found: 74500

====

target: αvβ6 (Homo sapiens, UniProt P06756+P18564); test: IC50 of αvβ6 adjusted for protein binding
Sequence (P06756 31-1048): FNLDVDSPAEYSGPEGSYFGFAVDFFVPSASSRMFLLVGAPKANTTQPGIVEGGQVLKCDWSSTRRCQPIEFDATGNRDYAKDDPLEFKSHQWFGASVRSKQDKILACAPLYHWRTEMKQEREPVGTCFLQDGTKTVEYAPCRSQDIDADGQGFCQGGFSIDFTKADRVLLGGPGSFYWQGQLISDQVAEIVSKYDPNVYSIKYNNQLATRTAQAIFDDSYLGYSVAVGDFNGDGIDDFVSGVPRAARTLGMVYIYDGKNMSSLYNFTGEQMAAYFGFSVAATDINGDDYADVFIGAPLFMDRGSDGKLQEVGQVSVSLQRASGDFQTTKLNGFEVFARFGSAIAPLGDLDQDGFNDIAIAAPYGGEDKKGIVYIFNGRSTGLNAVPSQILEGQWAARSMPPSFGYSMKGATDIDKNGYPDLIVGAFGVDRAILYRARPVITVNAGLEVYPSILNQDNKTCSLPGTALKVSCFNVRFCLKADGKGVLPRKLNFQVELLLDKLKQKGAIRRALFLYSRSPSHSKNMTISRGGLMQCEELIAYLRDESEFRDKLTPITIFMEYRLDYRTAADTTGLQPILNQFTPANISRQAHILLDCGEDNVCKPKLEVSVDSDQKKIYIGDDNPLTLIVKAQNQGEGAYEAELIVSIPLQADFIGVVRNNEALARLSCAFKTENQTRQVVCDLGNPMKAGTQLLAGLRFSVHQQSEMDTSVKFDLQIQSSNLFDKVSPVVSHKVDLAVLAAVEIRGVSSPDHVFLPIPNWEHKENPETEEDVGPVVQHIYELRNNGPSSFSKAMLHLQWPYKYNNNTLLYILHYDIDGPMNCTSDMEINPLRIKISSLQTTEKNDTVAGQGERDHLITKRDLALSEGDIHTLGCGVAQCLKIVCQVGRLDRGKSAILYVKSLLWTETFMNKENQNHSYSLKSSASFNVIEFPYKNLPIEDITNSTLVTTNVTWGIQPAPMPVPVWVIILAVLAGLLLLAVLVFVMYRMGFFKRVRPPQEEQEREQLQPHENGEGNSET
Sequence (P18564 22-788): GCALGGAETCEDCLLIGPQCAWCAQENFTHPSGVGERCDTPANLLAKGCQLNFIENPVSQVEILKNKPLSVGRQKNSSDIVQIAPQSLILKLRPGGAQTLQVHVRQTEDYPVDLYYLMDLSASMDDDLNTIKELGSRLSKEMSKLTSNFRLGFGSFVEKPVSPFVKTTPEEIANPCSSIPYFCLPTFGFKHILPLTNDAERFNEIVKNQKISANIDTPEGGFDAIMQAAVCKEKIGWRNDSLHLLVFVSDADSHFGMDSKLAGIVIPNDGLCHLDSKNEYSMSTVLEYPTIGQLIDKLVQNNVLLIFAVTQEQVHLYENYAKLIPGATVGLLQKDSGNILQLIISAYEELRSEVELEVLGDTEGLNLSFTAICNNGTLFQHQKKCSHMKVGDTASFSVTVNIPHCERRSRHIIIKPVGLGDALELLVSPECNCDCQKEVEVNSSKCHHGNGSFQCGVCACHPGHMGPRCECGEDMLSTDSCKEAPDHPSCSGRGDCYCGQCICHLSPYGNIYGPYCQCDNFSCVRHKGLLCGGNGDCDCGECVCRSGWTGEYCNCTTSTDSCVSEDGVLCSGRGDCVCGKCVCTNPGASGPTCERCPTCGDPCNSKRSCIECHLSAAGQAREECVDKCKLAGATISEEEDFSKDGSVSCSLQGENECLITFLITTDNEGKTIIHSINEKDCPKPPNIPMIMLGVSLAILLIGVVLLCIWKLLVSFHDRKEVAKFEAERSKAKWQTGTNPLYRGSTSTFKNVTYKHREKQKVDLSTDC
propertyLabel: pIC50
One number for each entry, as −log10 of the molar value.

Lookup: Looking for the measured pIC50 of COCCN(CCCCc1ccc2c(n1)NCCC2)CC[C@H](Nc1ncnc2ccccc12)C(=O)O , can you help?
Found: 8.00

====

test: Multiple dose pharmacokinetics (MAD), Example B14; type: in vivo; details: human, plasma, oral; 240 mg daily, Day 7; median
propertyLabel: Tmax
Respond with the figure and its unit, in that order.

Lookup: Looking for the measured Tmax of COCCN(CCCCc1ccc2c(n1)NCCC2)CC[C@H](Nc1ncnc2ccccc12)C(=O)O [Compound 5] , can you help?
Found: 3 h

====

test: Single dose pharmacokinetics (SAD), Example B14; assay type: in vivo, human; conditions: human, plasma, oral; single dose 120 mg; median
propertyLabel: Tmax (h)
One number for each entry, in h.

Lookup: Looking for the measured Tmax of COCCN(CCCCc1ccc2c(n1)NCCC2)CC[C@H](Nc1ncnc2ccccc12)C(=O)O [Compound 5] , can you help?
Found: 4

====

So I've got a bunch of molecules here, and I need their IC50 values.
molecular target: recombinant human integrin αvβ6 (Homo sapiens, UniProt P06756+P18564); test: Solid phase integrin αvβ6 binding assay; settings: read-out: αvβ6 Inhibition IC50 (nM) - range

lineNotation	IC50
O=C(O)[C@H](CCN(CCCCc1ccc2c(n1)NCCC2)CC(F)F)Nc1ncncc1-c1ccccc1	> 1000 nM

Batch request: IC50 for each of the following molecules.
1. O=C(O)[C@H](CCN(CCCCc1ccc2c(n1)NCCC2)CCOc1ccc(F)cc1)Nc1ncc(C(F)(F)F)cn1
2. O=C(O)[C@H](CCN(CCCCc1ccc2c(n1)NCCC2)CCC(F)F)Nc1ncc(Br)cn1
3. CO[C@H](C)CN(CCCCc1ccc2c(n1)NCCC2)CC[C@H](Nc1ncnc2ccccc12)C(=O)O
4. O=C(O)[C@H](CCN(CCCCc1ccc2c(n1)NCCC2)CCC(F)F)Nc1ncnc2ccccc12
5. Cn1ncc2c(N[C@@H](CCN(CCCF)CCCCc3ccc4c(n3)NCCC4)C(=O)O)ncnc21
6. Cn1ncc2c(N[C@@H](CCN(CCCCc3ccc4c(n3)NCCC4)CCOc3ccccc3)C(=O)O)ncnc21

Found:
1. < 50 nM
2. 50 to 250 nM
3. < 50 nM
4. < 50 nM
5. < 50 nM
6. < 50 nM

====

experiment: Multiple dose pharmacokinetics (MAD), Example B14; assay type: in vivo; details: human, plasma, oral; 120 mg daily, Day 7; geometric mean; read-out: AUC0−24, ng × h/mL
propertyLabel: AUC(0-t) (ng·h/mL)
Numbers only, in ng·h/mL.

Lookup: Looking for the measured AUC(0-t) of COCCN(CCCCc1ccc2c(n1)NCCC2)CC[C@H](Nc1ncnc2ccccc12)C(=O)O [Compound 5] , can you help?
Found: 49400

====

Assay: Single dose pharmacokinetics (SAD), Example B14
Format: in vivo, human
Details: human, plasma, oral; single dose 240 mg; geometric mean; read-out: AUC0-24, ng × h/mL
Description: Accordingly, a study was designed to assess the PK of Compound 5 after a single dose and following a 6-day course of doses, at levels exceeding the dosages used in preceding Examples B12 and B13. This study was designed to assess at these higher doses aspects of the single-dose and steady-state pharmacokinetics of Compound 5. This study was a single-center, randomized, double-blind, ascending dose, placebo-controlled study in healthy participants. […]
propertyLabel: AUC(0-t) (ng·h/mL)
One number for each entry, in ng·h/mL.

Lookup: Looking for the measured AUC(0-t) of COCCN(CCCCc1ccc2c(n1)NCCC2)CC[C@H](Nc1ncnc2ccccc12)C(=O)O [Compound 5] , can you help?
Found: 48000

====

test: Single dose pharmacokinetics (SAD), Example B14; type: in vivo, human; conditions: human, plasma, oral; single dose 480 mg; geometric mean
propertyLabel: Cmax (ng/mL)
One number for each entry, in ng/mL.

Lookup: Looking for the measured Cmax of COCCN(CCCCc1ccc2c(n1)NCCC2)CC[C@H](Nc1ncnc2ccccc12)C(=O)O [Compound 5] , can you help?
Found: 5080

====

assay: Multiple dose pharmacokinetics (MAD), Example B14; assay type: in vivo; conditions: human, plasma, oral; 320 mg daily, Day 7; geometric mean; read-out: T1/2 (converted)
propertyLabel: half-life (h)
Numbers only, in h.

Lookup: Looking for the measured half-life of COCCN(CCCCc1ccc2c(n1)NCCC2)CC[C@H](Nc1ncnc2ccccc12)C(=O)O , can you help?
Found: 46

====

system: lung Col1a1 expression; test: Precision cut lung slices, chronic bleomycin, comparison with nintedanib and pirfenidone (Example B10); assay type: cell-based, Mice (C57BL/6); details: chronic bleomycin PCLS, 7 days culture, vs DMSO vehicle; FIG. 6A

compound	targetEntity	lung slice Col1a1 expression
COC(=O)c1ccc2c(c1)NC(=O)/C2=C(\Nc1ccc(N(C)C(=O)CN2CCN(C)CC2)cc1)c1ccccc1 [nintedanib]	lung Col1a1 expression	slight increase
Cc1ccc(=O)n(-c2ccccc2)c1 [pirfenidone]	lung Col1a1 expression	slight increase

====

biological target: recombinant human integrin αvβ6 (Homo sapiens, UniProt P06756+P18564); assay: Solid phase integrin αvβ6 binding assay; conditions: read-out: αvβ6 Inhibition IC50 (nM) - range
propertyLabel: IC50

Consider the following illustrative entries.
lineNotation	propertyLabel	valueObserved
COCCN(CCCCc1ccc2c(n1)NCCC2)CC[C@H](Nc1ncnc2cc(F)ccc12)C(=O)O	IC50	< 50 nM
CO[C@H](C)CN(CCCCc1ccc2c(n1)NCCC2)CC[C@H](Nc1ccncn1)C(=O)O	IC50	< 50 nM
CS(=O)(=O)CCN(CCCCc1ccc2c(n1)NCCC2)CC[C@H](Nc1ncnc2ccccc12)C(=O)O	IC50	< 50 nM

Batch request: IC50 for each of the following compounds.
1. CO[C@H](C)CN(CCCCc1ccc2c(n1)NCCC2)CC[C@H](Nc1cc(-c2ccccc2)ncn1)C(=O)O
2. COC[C@@H](F)CN(CCCCc1ccc2c(n1)NCCC2)CC[C@H](Nc1ncc(C#N)cn1)C(=O)O

Found:
1. < 50 nM
2. 250 to 1000 nM

====

test: First-in-human SAD and MAD pharmacokinetics (Example B12); type: in vivo; conditions: plasma, healthy subjects, oral solution, SAD 15-75 mg and MAD 10-40 mg, read-out: calculated half life
propertyLabel: half-life

Lookup: Looking for the measured half-life of COCCN(CCCCc1ccc2c(n1)NCCC2)CC[C@H](Nc1ncnc2ccccc12)C(=O)O , can you help?
Found: 35 to 55 h

====

test: Multiple dose pharmacokinetics (MAD), Example B14; assay type: in vivo; conditions: human, plasma, oral; multiple doses 80 to 320 mg QD; read-out: Geometric mean T1/2
propertyLabel: half-life

Lookup: Looking for the measured half-life of COCCN(CCCCc1ccc2c(n1)NCCC2)CC[C@H](Nc1ncnc2ccccc12)C(=O)O , can you help?
Found: 2160 to 3300 min

====

test: Multiple dose pharmacokinetics (MAD), Example B14; assay type: in vivo; conditions: human, plasma, oral; 320 mg daily, Day 7; geometric mean
propertyLabel: Cmax (ng/mL)
One number for each entry, in ng/mL.

Lookup: Looking for the measured Cmax of COCCN(CCCCc1ccc2c(n1)NCCC2)CC[C@H](Nc1ncnc2ccccc12)C(=O)O , can you help?
Found: 5730

====

assay: Multiple dose pharmacokinetics (MAD), Example B14; assay type: in vivo; conditions: human, plasma, oral; 160 mg daily, Day 7, two cohorts pooled; geometric mean; read-out: AUC0−24, ng × h/mL
propertyLabel: AUC(0-t) (ng·h/mL)
Answers are plain numbers, in ng·h/mL.

Lookup: Looking for the measured AUC(0-t) of COCCN(CCCCc1ccc2c(n1)NCCC2)CC[C@H](Nc1ncnc2ccccc12)C(=O)O [Compound 5] , can you help?
Found: 49400
